# Test system: Fibroblast
# procedure.text: Incucyte cell viability with human fibroblast; further: unitless GR value; below 1 slowed growth and below 0 cell loss
# Assay type: toxicity, cell-based
# run.conditions: 18 h, 10 µM, compound concentration 10 uM, replicate number 1
Given measured Growth Rate, output MET if it is greater than or equal to 0.6 and NOT MET if not.

Solved cases (5 shown):
[[record]]
molecule = "CNc1nc(NCc2ncccn2)c2c(-c3ccc4ncccc4c3)c[nH]c2n1"
label = "MET"

[[record]]
molecule = "NCC1CCC(CNc2nc(NCc3ccccc3OC(F)(F)F)ncc2[N+](=O)[O-])CC1 (stereo unspecified)"
label = "NOT MET"

[[record]]
molecule = "N[C@H](C(=O)O)[C@@H]1CC(Cl)=NO1"
label = "NOT MET"

[[record]]
molecule = "N#Cc1ccc(C#CC[C@@H](C#N)NC(=O)[C@H]2CCCCN2)cc1F.O=C(O)C(F)(F)F"
label = "MET"

[[record]]
molecule = "CCO[C@@H](Cc1ccc(OCCc2ccc(OS(C)(=O)=O)cc2)cc1)C(=O)O"
label = "MET"


Challenge: Say whether CN1C(=O)Cc2ccc(-c3ccc(C[C@@H](C#N)NC(=O)[C@@H]4N[C@H]5CC[C@@H]4C5)c(F)c3)cc21 shows Growth Rate of 0.6 or more.
Response given: NOT MET

Challenge: Say whether CC(C1CC2CCC1C2)n1c(S)nnc1-c1ccco1 (stereo unspecified) shows Growth Rate of 0.6 or more.
Response given: NOT MET

Challenge: Say whether Cn1cc(-c2ccc(N(C(=O)NCc3ccccc3)[C@H]3CC[C@H](Nc4ccc(C#N)cn4)CC3)cc2)ccc1=O shows Growth Rate of 0.6 or more.
Response given: NOT MET

Challenge: Say whether O=C(Nc1ccc(N2CCC(C(=O)N3CCOCC3)CC2)cc1)c1cnc(Oc2ccccc2)nc1 shows Growth Rate of 0.6 or more.
Response given: MET

Challenge: Say whether COc1ccc(-c2cc3c(C)nc(N)nc3n([C@H]3CC[C@H](OCCO)CC3)c2=O)cn1 shows Growth Rate of 0.6 or more.
Response given: NOT MET

Challenge: Say whether O=C1Nc2ccc(C(=O)c3ccco3)cc2C1=Cc1cc(Cl)c(O)c(Cl)c1 [GW406108X] shows Growth Rate of 0.6 or more.
Response given: MET
